Recorded cytotoxicity at 10 µM for the following compounds
measurement description: Toxicity liver stage against HepG2, at 10uM
Type: cell-based
Design: test concentration 10 uM, cell line HepG2-A16-CD81EGFP
measurement context: human, HepG2-A16-CD81EGFP cells; read-out: INHIBITION
Expressed in %, but write only the number.

Previously resolved entries follow.
(Q) Could you tell me which cytotoxicity at 10 µM is on file for CN1CCC(Cc2noc(CC3CC3)n2)CC1 ?
(A) -9.96

(Q) And what about the compound Cc1noc(CCCC(=O)NC(C)c2ccccn2)n1 (stereo not given) ?
(A) -10.9

(Q) Let us now turn to CCC1CN(C(=O)CN2CCN(c3nccc(OC)n3)CC2)CCO1 (stereo not given)
(A) -6.21

(Q) Also check CC(C)CC(=O)N1CC(=O)N(Cc2ccco2)CC(O)C1 (stereo not given)
(A) -8.23

(Q) Also check COCCCC1(CO)CCCN(Cc2cccc(C#N)c2)C1 (stereo not given)
(A) 4.16

(Q) // repeat for Cc1sc(Br)cc1S(=O)(=O)NCCN and report
(A) -6.69

(Q) Queued: Cc1nccnc1CN1CCC2(CCCN(C3CCOCC3)C2=O)C1 (stereo not given)
(A) -5.44

(Q) Further, for CC(NC(=O)NCCCn1cccn1)c1ccccn1 (stereo not given) ?
(A) -11.5

Further cases:
(Q) Given O=C(CCCOc1cccc(F)c1)N1CCCC(n2cncn2)C1 (stereo not given) , state its recorded cytotoxicity at 10 µM.
(A) -13.2

(Q) Queued: c1cnn(CC2CN(CC3CCCCC3)CCO2)c1 (stereo not given)
(A) -7.85

(Q) What do you get for Cc1oc(-c2cccs2)nc1C(=O)N1CCCC1Cn1cccn1 (stereo not given) ?
(A) -7.22

(Q) Can you handle CC[C@H]1COCCN1C(=O)CCCn1nnc(-c2ccc(F)cc2)n1 next?
(A) 13.4

(Q) Also CCOc1ccc(NC(=O)c2cc3c([nH]c2=O)CCC3)cc1 , if possible.
(A) 6.5

* * *

measurement description: Toxicity liver stage against HepG2, at 10uM
Type: cell-based
Parameters: test concentration 10 uM, cell line HepG2-A16-CD81EGFP
measurement context: human, HepG2-A16-CD81EGFP cells; read-out: INHIBITION
value kind: cytotoxicity at 10 µM
Please state the number and follow it with the unit.

Check out these entries, answers already filled in.
(Q) Which cytotoxicity at 10 µM value is on record for Cc1cc(F)ccc1NCC(=O)NCC(F)(F)F ?
(A) -2.56%

(Q) c1coc(CN2Cc3nccn3CC(Cn3cncn3)C2)c1 (stereo not given) ?
(A) -7.18%

(Q) Ok, now Cc1nc(CN2C(=O)COC3(CCN(C(N)=O)CC3)C2C)cs1 (stereo not given)
(A) -130%

(Q) And O=C1CN(C(=O)c2cc(-c3ccco3)nc3c(Cl)cccc23)CCN1 ?
(A) -5.2%

(Q) Proceed to CC(C)NC(=O)CCCn1cnc2ccccc2c1=O
(A) 15.2%

(Q) Here is the next molecule: O=C(NCC1CC1)[C@H]1C[C@@H]2CCN(Cc3nccs3)C[C@@H]2O1
(A) -1.7%

(Q) Then Cc1nc(CN2CCO[C@@H]3CN(C(=O)CC4CC4)C[C@@H]3C2)cs1 ?
(A) 5.04%

(Q) Consider next the molecule COc1cc(NC(=O)c2cc(C)sc2C)c(C(=O)N(C)C)cc1OC in the same way.
(A) -10.6%

Kindly consider the entry below.
(Q) Please look up its cytotoxicity at 10 µM: O=C(Nc1cc(C(F)(F)F)c[nH]c1=O)C1CCCO1 (stereo not given)
(A) -0.37%
